Where these numbers come from: ChEMBL document CHEMBL4049382

# tgt: 4-hydroxyphenylpyruvate dioxygenase (Sus scrofa)
# Sequence (Q02110 whole entry): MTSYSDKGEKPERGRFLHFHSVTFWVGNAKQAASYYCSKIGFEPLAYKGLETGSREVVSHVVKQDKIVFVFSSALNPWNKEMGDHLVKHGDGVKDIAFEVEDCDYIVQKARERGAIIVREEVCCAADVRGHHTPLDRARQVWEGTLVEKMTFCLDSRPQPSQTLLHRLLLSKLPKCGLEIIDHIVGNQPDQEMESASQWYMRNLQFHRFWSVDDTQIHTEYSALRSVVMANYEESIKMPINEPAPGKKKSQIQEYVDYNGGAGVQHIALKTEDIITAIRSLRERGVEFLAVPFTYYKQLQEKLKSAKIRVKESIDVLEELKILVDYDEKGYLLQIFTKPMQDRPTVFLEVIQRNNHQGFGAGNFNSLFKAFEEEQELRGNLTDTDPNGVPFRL
# procedure_text: Inhibition of pig liver HPPD using HPP as substrate after 15 mins
measurement_kind: IC50 (µM)
Field: numeric (µM). Do not append units.

Recorded IC50 for O=C(O)C(O)(O)C(F)c1ccccc1 (stereo unspecified) with 4-hydroxyphenylpyruvate dioxygenase (Sus scrofa), please?
10

----------
# procedure_text: Half life in human plasma at 1 mg/kg administered as capsule
# Type: ADME, organism-based
# conditions_used: po
measurement_kind: half-life (h)
Field: numeric (h). Do not append units.

Please look up its half-life: CS(=O)(=O)c1ccc(C(=O)C2C(=O)CCCC2=O)c([N+](=O)[O-])c1 [MESOTRIONE]
1
